- Target Desc: T1, human TIM3, full length, on cells (human, UniProt Q8TDQ0 22-301)
- T1 construct: CHO-K1 cells were transfected with a plasmid for full-length human Tim3; other cells carry endogenous TIM3; also called huTIM-3; CHO-Tim3
- Test Protocol: cell ELISA, CHO-K1 with full-length human Tim3
Assay Readout: EC50 (µg/mL)
# output: bare number, implied unit µg/mL

Req: State the recorded EC50 for this entry: anti-TIM3 antibody Tim3_0033 (antibody, V domains shown, Mouse monoclonal from hybridoma) VH: QGQMHQSGAELVKPGSSVKLSCKTSGFTFSSSFISWLKQKPGQSLEWIAWIYAATGSTSYNQKFTNKAQLTVDTSSSAAYMQFSSLTTEDSAIYYCARHAGYPHYYAMDYWGQGTSVTVSS VL: DIQMTQSPASLSASVGETVTITCRASENIFSNLAWYQQKQGKSPQLLVYSATNLGDGVPSRFSGSGSGTQFSLKINSLQPEDFGNYYCQHFYKIPFTFGTGTKLEIK
Resp: 3.71
